Biological target: GCN2 (Homo sapiens)
Sequence (Q9P2K8 whole entry): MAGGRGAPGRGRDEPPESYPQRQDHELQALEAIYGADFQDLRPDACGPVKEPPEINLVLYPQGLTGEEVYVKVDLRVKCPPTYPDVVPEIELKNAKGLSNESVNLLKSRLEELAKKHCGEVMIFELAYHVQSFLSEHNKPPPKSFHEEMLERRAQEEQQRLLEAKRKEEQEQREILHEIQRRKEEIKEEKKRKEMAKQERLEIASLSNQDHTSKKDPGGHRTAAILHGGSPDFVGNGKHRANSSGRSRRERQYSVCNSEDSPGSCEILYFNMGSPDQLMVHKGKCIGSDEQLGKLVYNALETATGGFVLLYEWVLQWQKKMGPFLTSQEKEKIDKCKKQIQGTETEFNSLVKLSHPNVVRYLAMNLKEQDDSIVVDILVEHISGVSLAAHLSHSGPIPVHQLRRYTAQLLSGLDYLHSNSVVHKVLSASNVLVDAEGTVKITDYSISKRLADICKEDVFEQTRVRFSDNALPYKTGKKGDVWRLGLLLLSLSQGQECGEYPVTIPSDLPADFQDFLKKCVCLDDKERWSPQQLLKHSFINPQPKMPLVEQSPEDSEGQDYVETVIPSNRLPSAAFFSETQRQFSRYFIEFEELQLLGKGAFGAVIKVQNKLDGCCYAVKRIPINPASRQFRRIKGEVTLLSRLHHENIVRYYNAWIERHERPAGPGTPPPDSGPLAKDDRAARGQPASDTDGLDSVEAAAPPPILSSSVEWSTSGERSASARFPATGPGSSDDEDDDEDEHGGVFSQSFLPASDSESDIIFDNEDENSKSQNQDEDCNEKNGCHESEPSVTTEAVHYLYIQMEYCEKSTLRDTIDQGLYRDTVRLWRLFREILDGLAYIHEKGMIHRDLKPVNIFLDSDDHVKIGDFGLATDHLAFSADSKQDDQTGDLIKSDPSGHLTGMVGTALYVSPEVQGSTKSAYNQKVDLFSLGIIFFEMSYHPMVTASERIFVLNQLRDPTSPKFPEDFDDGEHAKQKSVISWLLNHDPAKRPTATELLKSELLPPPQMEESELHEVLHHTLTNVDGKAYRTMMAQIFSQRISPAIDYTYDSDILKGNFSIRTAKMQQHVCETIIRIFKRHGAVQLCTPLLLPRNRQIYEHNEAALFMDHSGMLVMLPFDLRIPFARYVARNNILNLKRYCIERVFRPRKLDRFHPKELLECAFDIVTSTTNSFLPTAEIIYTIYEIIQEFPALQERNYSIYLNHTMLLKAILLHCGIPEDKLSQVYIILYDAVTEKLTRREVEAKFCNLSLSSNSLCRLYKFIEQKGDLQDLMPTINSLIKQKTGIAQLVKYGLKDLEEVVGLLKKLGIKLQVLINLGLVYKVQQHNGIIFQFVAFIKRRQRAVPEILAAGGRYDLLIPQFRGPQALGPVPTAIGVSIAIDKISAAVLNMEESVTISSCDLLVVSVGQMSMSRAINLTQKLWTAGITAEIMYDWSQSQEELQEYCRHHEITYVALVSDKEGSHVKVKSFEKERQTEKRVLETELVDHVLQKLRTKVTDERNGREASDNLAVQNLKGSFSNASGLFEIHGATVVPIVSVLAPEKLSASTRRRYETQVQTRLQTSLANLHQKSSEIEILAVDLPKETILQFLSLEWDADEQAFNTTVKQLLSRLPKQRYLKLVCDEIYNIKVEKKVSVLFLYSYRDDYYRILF
Assay: GCN2 enzymatic endpoint assay: phosphorylation of GFP-eIF2α measured by TR-FRET (Lanthascreen)
Format: biochemical
Details: GCN2 biochemical IC50; 4 nM GCN2, 2 μM ATP, 80 nM GFP-eIF2α, 90 min RT; read-out: GCN2 activity
Where a name gives a salt, the structure may show the parent alone.
Catalogue of IC50 values

{"compound": "CNC(=O)[C@]1(C)CC[C@@H](Nc2ncc3c(Br)nn(-c4ccc(-c5nnc(C)s5)c(C#N)c4)c3n2)C1 [Example 69]", "experimental_target": "GCN2 (Homo sapiens)", "IC50": "< 25 nM"}
{"compound": "CS(=O)(=O)N[C@@H]1CCC(Nc2ncc3c(Br)nn(-c4ccc5ncccc5c4)c3n2)C1 (mixture of isomers) [Example 15]", "experimental_target": "GCN2 (Homo sapiens)", "IC50": "200 to 500 nM"}
{"compound": "CNC(=O)[C@]1(C(C)C)CC[C@@H](Nc2ncc3c(Br)nn(-c4cc(F)c5ncccc5c4)c3n2)C1 [Example 37, hydrochloride]", "experimental_target": "GCN2 (Homo sapiens)", "IC50": "< 25 nM"}
{"compound": "CNC(=O)[C@]1(C)CC[C@@H](Nc2ncc3c(Br)nn(-c4cc([C@@H](C)N)c5nccnc5c4)c3n2)C1 [Example 34]", "experimental_target": "GCN2 (Homo sapiens)", "IC50": "< 25 nM"}

The values you see were collected from patent US11046699B2.
